system: HACAT; test: qHTS assay to identify novel small-molecules to repurpose for Merkel cell carcinoma treatment (AID 1296009); conditions: MCC and control cell lines, CellTiter-Glo viability, 72 h; at 44.8 µM (top of the series) unless noted; note: nearly all actives have a fitted effect of over 60% in size
Inconclusive results are not listed. The source made the active and inactive calls. Calls come from the whole dose curve; as a rule, active = well fitted inhibition curve with a large enough effect; inconclusive = small, poorly fitted or top-dose-only effect; inactive = flat fitted curve, though single readings scatter.

# compound, outcome
rows = [
    ("O=C(Nc1ccc(Cl)cc1)Nc1cccc(-c2cccc(N3CCCC3)n2)c1", "inactive"),
    ("COc1ccc(-c2ccccc2)cc1NS(=O)(=O)c1cc(Cl)cc(Cl)c1O", "inactive [at 17.4 µM]"),
    ("CC(C)C[C@@H](C(=O)N[C@@H](Cc1ccc(OCc2ccccc2)cc1)C(=O)NC(C)(C)C)N(C)Cc1ccc(C(C)(C)C)cc1", "inactive"),
    ("O=C(COc1ccc2ccccc2c1Br)Nc1cccnc1", "inactive"),
    ("CCOc1nc(NC(=O)Cc2cc(OC)ccc2OC)cc(N)c1C#N", "inactive"),
    ("CC(C)CCCCC(=O)N[C@@H](CO)C(=O)N[C@@H](CC(C)C)C(=O)[C@@]1(CO)CO1", "inactive"),
    ("O=C(Nc1ccc(-c2ccnc(Nc3ccc(N4CCOCC4)cc3)n2)cc1)C1CCCN1 (stereo not drawn)", "inactive"),
    ("CC1(C)Oc2ncnc(N)c2N=C1c1ccc(C23CCC(CC(=O)O)(CC2)CC3)cc1", "inactive"),
    ("COc1ccc(NC(=O)c2ccc(-c3ccc(-c4nnc(C)o4)cc3C)cc2)cc1N1CCN(C)CC1", "inactive; activator"),
    ("CC(=O)c1ccc2c(c1)[C@H](NC(=O)c1ccc(F)c(Cl)c1)[C@H](O)C(C)(C)O2", "inactive"),
    ("O=c1[nH]c2ccccc2n1CCN1CCN(c2cccc(C(F)(F)F)c2)CC1", "inactive"),
    ("CNCCCC1(c2ccccc2)OC(C)(C)c2ccccc21 (stereo not drawn)", "inactive"),
    ("CC[C@H](C)/C=C(C)/C=C/C1=CC2=C(Cl)C(=O)[C@](C)(O)[C@H](OC(C)=O)[C@H]2CO1", "inactive"),
    ("O=C(OC1CN2CCC1CC2)N1CCc2ccccc2C1c1ccccc1 (stereo not drawn)", "inactive"),
    ("C=C1/C(=C/C=C2\\CCC[C@]3(C)[C@@H]([C@H](C)/C=C/[C@@H](C)C(C)C)CC[C@@H]23)C[C@@H](O)C[C@@H]1O", "inactive; activator"),
    ("Cc1csc(N(C(=O)CSc2ccc(-c3ccccc3)nn2)C2CC2)n1", "inactive"),
    ("CC[C@H](C)/C=C(C)/C=C/C1=CC2=CC(=O)[C@]3(C)OC(=O)[C@@H](C(C)=O)[C@@H]3C2=CO1", "inactive"),
    ("CC(C)=C[C@@H]1[C@H](CO[C@@H]2O[C@H](CO)[C@@H](O)[C@H](O)[C@H]2O)C1(C)C", "inactive"),
    ("N#Cc1ccc(-c2ccc(S(=O)(=O)Nc3cccc(N)n3)cc2)cc1", "inactive"),
    ("CC#CCn1c(N2CCCC(N)C2)nc2c1c(=O)n(Cc1nc(C)c3ccccc3n1)c(=O)n2C (stereo not drawn)", "inactive"),
    ("O=C(NCc1nc2ccccc2c(=O)n1-c1ccc(F)cc1)Nc1ccc(Cl)c(C(F)(F)F)c1", "inactive"),
    ("O=S1(=O)CCN(Cc2cc(NCC3CCOCC3)c3[nH]c(-c4ccccc4)cc3c2)CC1", "inactive"),
    ("Nc1nc2c(c(N3CC[C@@H](N)C3)n1)CCCc1ccccc1-2", "inactive"),
    ("COc1cc2ncc(-c3ccccc3)nc2cc1OC", "inactive"),
    ("O=C1NC(=O)C(c2cnc3ccccn23)=C1c1cn2c3c(cc(F)cc13)CN(C(=O)N1CCCCC1)CC2", "inactive"),
    ("CC(=O)OC(C)(C)/C=C/C(=O)C(C)(O)C1C(O)CC2(C)C3CC=C(C(C)(C)C(=O)O)C(CC(=O)O)C3(C)C(=O)CC12C (stereo not drawn)", "inactive [at 17.4 µM]"),
    ("CC(=O)O[C@@H]1CC2C(C)(C)C(=O)C=C[C@]2(C)C2CC[C@@]3(C)[C@H](c4ccoc4)OC(=O)[C@H]4O[C@]43[C@@]21C (stereo partly drawn)", "inactive [at 17.4 µM]"),
]

Cited source: PubChem BioAssay (NCATS)
